Values compiled from the supplement of paper PMC10849652.

- targetUnderTest: ZNF579 (UniProt Q8NAF0)
- Sequence (Q8NAF0 whole entry, looked up): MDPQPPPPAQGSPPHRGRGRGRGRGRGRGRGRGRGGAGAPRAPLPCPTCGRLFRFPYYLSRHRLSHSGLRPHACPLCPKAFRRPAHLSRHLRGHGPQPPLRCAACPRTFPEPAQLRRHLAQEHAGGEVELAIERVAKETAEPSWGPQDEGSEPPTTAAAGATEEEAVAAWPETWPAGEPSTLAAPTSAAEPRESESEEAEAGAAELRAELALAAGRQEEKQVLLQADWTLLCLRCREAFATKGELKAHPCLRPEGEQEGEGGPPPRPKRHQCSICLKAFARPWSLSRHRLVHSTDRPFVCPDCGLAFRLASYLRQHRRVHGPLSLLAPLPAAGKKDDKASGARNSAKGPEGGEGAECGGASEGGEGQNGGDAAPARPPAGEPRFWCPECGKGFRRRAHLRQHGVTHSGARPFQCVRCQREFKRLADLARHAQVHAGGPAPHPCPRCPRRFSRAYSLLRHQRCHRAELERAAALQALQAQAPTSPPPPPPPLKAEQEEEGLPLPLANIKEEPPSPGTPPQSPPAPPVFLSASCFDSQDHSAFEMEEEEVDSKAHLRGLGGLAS
- assayMethodText: log2 fold change, soluble protein after heating vs DMSO (PISA); higher = thermal stabilisation; K562 cells, 10 uM, 30 min; active = over 0.2 and 3.5 SD of the protein, either way, in both replicates (recomputed)
Targets with a hit are over-represented here; the source holds about 7,900 in all. About 0.6% of all pairs of compound and target were hits.
Please respond with reported log2 fold change for every item in the list.

COc1ccc(Cn2ccc3ccc(C(=O)NO)cc32)cc1 : 0.056 (inactive)
C[C@@H](N)c1ccc(C(=O)Nc2ccnc3[nH]ccc23)cc1 : 0.102 (inactive)
c1cc(OCCN2CCCCC2)cc(-c2n[nH]c3ccc(-c4nnc[nH]4)cc23)c1 : 0.078 (inactive)
CCCS(=O)(=O)Nc1ccc(F)c(C(=O)c2c[nH]c3ncc(Cl)cc23)c1F : -0.085 (inactive)

Item C=CC(=O)N1CCC[C@@H](n2nc(-c3ccc(Oc4ccccc4)cc3)c3c(N)ncnc32)C1 [ibrutinib] has what recorded log2 fold change?
-0.024 (inactive)

----------
- targetUnderTest: ZNF217 (UniProt O75362)
- Sequence (O75362 whole entry, looked up): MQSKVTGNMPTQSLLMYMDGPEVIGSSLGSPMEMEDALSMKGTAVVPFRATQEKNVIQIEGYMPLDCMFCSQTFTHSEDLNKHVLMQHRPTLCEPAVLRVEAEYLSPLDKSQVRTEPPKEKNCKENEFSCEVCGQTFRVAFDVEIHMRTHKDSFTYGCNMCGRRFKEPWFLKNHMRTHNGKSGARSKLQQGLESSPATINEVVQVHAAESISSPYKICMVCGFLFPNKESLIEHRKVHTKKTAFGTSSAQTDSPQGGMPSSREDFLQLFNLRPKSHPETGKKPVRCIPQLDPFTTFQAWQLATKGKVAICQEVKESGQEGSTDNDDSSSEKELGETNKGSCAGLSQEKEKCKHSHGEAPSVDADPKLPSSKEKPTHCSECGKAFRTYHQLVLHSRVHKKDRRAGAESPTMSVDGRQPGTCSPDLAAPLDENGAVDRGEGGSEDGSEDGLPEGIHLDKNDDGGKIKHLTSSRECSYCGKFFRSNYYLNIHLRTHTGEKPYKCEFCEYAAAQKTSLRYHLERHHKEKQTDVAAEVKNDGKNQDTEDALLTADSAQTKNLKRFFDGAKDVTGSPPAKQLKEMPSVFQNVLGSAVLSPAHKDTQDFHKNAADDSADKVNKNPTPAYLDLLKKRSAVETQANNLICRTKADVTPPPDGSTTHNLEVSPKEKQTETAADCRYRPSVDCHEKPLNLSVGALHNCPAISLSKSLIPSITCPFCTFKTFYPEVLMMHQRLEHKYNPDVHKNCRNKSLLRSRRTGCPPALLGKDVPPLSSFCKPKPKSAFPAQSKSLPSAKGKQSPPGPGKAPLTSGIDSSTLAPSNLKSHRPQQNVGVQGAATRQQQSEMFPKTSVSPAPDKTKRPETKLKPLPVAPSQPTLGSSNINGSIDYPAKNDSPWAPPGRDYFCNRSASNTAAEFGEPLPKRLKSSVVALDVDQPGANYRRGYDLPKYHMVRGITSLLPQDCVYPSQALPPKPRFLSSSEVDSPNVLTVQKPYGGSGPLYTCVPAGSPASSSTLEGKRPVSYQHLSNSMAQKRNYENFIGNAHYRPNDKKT
- assayMethodText: log2 fold change, soluble protein after heating vs DMSO (PISA); higher = thermal stabilisation; K562 cells, 10 uM, 30 min; active = over 0.2 and 3.5 SD of the protein, either way, in both replicates (recomputed)
The full data set covers some 7,900 targets. This sample favours those with a hit. About 0.6% of all pairs of compound and target were hits.
assayMetric: log2 fold change

C[C@H](Nc1ncnc2nc[nH]c12)c1cc2cccc(Cl)c2c(=O)n1-c1ccccc1 [duvelisib] : 0.108 (inactive)
CN(C)CC(=O)Nc1ccc2[nH]c(=O)c3ccccc3c2c1 : 0.06 (inactive)
COC(=O)N[C@@H](C)CNc1nccc(-c2cn(C(C)C)nc2-c2cc(Cl)cc(NS(C)(=O)=O)c2F)n1 [encorafenib] : -0.054 (inactive)
Cc1cc(SCc2sc(-c3ccc(C(F)(F)F)cc3)nc2C)ccc1OCC(=O)O : 0.112 (inactive)
CC[C@@H]1C(=O)N(C)c2cnc(Nc3ccc(C(=O)N[C@H]4CC[C@H](N5CCN(CC6CC6)CC5)CC4)cc3OC)nc2N1C(C)C [volasertib] : -0.007 (inactive)

Dear colleague, could you please provide log2 fold change for the compounds listed below?
1. Cc1ccc2c(=O)c3ccccc3n(CCCN)c2c1C
2. NC(=O)c1cnc(N[C@@H]2CCCC[C@@H]2N)nc1Nc1cccc(-n2nccn2)c1
3. Cc1ccc(NC(=O)c2cccc(N(C)C)c2)cc1NC(=O)c1ccc(O)cc1

1: -0.142 (inactive); 2: -0.053 (inactive); 3: 0.006 (inactive)

// query log2 fold change value for entry COc1ccc(Cn2ccc3ccc(C(=O)NO)cc32)cc1
-0.024 (inactive)

----------
- targetUnderTest: ZCCHC9 (UniProt Q8N567)
- Sequence (Q8N567 whole entry, looked up): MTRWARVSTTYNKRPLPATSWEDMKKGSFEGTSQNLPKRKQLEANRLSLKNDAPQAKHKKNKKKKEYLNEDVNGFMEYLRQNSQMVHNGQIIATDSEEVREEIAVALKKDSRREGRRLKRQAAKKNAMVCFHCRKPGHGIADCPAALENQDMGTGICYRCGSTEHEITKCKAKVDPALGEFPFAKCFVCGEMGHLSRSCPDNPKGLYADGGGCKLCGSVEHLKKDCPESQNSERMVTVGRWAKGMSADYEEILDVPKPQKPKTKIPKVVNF
- assayMethodText: log2 fold change, soluble protein after heating vs DMSO (PISA); higher = thermal stabilisation; K562 cells, 10 uM, 30 min; active = over 0.2 and 3.5 SD of the protein, either way, in both replicates (recomputed)
The full data set covers some 7,900 targets. This sample favours those with a hit. About 0.6% of all pairs of compound and target were hits.
Field: log2 fold change. Provide a value for each of the compounds that follow.

O=C1NC(=O)/C(=C\c2ccc3nccnc3c2)S1 : -0.015 (inactive)
COC(=O)N[C@@H](C)CNc1nccc(-c2cn(C(C)C)nc2-c2cc(Cl)cc(NS(C)(=O)=O)c2F)n1 : 0.002 (inactive)
O=C(CCCCCCNC(=O)c1cnc(N(c2ccccc2)c2ccccc2Cl)nc1)NO : -0.161 (inactive)

Consider the additional compound presented here.
Requested field: log2 fold change. Item: CC[C@@H]1C(=O)N(C)c2cnc(Nc3ccc(C(=O)N[C@H]4CC[C@H](N5CCN(CC6CC6)CC5)CC4)cc3OC)nc2N1C(C)C
0.226 (inactive)

----------
- targetUnderTest: ZNF579 (UniProt Q8NAF0)
- assayMethodText: log2 fold change, soluble protein after heating vs DMSO (PISA); higher = thermal stabilisation; K562 cells, 10 uM, 30 min; active = over 0.2 and 3.5 SD of the protein, either way, in both replicates (recomputed)
The full data set covers some 7,900 targets. This sample favours those with a hit. About 0.6% of all pairs of compound and target were hits.
So I've got a bunch of compounds here, and I need their log2 fold change values.
Give bare numbers.

Worked cases, answers included:
COc1cc(Nc2ncc3c(n2)-c2ccc(Cl)cc2C(c2c(F)cccc2OC)=NC3)ccc1C(=O)O : -0.082
CN1CCc2c(c3ccccc3n2Cc2ccc(C(=O)NO)cc2)C1 : 0.095
Cc1ccc(C(=O)N(CCCN)[C@@H](c2nc3cc(Cl)ccc3c(=O)n2Cc2ccccc2)C(C)C)cc1 : 0.029

Now let's try a different one.
May I ask what log2 fold change has been recorded for Nc1ccccc1NC(=O)c1ccc(CNC(=O)OCc2cccnc2)cc1 ?
-0.036

----------
- targetUnderTest: ZMYM1 (UniProt Q5SVZ6)
- Sequence (Q5SVZ6 whole entry, looked up): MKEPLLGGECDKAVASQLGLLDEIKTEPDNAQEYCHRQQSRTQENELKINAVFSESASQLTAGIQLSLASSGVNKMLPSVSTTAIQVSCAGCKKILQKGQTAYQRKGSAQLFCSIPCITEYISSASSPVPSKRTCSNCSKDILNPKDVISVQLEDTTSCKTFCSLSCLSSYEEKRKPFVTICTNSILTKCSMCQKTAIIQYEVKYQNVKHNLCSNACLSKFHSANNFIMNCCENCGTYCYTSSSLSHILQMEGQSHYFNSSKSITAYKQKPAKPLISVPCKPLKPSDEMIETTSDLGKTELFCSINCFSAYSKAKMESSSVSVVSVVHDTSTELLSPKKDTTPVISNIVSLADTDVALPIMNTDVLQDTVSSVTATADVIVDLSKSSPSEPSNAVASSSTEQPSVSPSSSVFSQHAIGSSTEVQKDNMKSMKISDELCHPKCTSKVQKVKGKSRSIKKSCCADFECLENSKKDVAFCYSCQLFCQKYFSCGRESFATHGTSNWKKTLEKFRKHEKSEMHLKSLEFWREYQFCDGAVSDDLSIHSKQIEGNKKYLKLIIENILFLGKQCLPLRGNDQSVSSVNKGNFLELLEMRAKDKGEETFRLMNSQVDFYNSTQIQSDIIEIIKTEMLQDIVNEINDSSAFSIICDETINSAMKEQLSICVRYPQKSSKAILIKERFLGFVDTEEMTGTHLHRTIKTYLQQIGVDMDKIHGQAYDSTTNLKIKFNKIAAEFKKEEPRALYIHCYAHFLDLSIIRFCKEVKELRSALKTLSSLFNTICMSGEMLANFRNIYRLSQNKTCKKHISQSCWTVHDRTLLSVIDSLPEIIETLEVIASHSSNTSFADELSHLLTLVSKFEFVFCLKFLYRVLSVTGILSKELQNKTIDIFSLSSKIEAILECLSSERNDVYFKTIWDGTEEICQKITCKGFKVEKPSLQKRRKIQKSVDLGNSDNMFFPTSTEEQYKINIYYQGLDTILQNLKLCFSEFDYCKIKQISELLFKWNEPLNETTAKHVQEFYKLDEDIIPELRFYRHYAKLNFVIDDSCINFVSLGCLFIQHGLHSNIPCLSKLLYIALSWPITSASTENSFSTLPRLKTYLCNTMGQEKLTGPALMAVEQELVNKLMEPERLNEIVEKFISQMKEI
- assayMethodText: log2 fold change, soluble protein after heating vs DMSO (PISA); higher = thermal stabilisation; K562 cells, 10 uM, 30 min; active = over 0.2 and 3.5 SD of the protein, either way, in both replicates (recomputed)
Targets with a hit are over-represented here; the source holds about 7,900 in all. About 0.6% of all pairs of compound and target were hits.
Label rule, in plain words: log2 fold change of 0.001 and up is True, under 0.001 is False.

Observe how each entry below is paired with its result.
COc1cc(C(=O)O)ccc1NC(=O)[C@@H]1N[C@@H](CC(C)(C)C)[C@](C#N)(c2ccc(Cl)cc2F)[C@H]1c1cccc(Cl)c1F : True
CN(CCOc1ccc(C[C@@H]2SC(=O)NC2=O)cc1)c1ccccn1 (racemic) : True
CCN(CCCOc1ccc2c(Nc3cc(CC(=O)Nc4cccc(F)c4)[nH]n3)ncnc2c1)CCOP(=O)(O)O : True

Assess whether reported log2 fold change for Cc1ncc(-c2ccnc(Nc3ccc(S(C)(=O)=O)cc3)n2)n1C(C)C sits at 0.001 or higher.
False

Queued: COc1cc2ncnc(Nc3ccc(F)c(Cl)c3)c2cc1OCCCN1CCOCC1
True

Follow-up item: Cc1cc(SCc2sc(-c3ccc(C(F)(F)F)cc3)nc2C)ccc1OCC(=O)O
True

Queued: CCCS(=O)(=O)Nc1ccc(F)c(C(=O)c2c[nH]c3ncc(-c4ccc(Cl)cc4)cc23)c1F
False

Same read-out for CCCCN(Cc1ccc(C(=O)NO)cc1)C(=O)Nc1ccccc1 ?
True

Try Cc1ccc(C(=O)N(CCCN)[C@@H](c2nc3cc(Cl)ccc3c(=O)n2Cc2ccccc2)C(C)C)cc1 next.
False

----------
Can you tell me log2 fold change for the items I'm about to list?
- targetUnderTest: ZC3H8 (UniProt Q8N5P1)
- Sequence (Q8N5P1 whole entry, looked up): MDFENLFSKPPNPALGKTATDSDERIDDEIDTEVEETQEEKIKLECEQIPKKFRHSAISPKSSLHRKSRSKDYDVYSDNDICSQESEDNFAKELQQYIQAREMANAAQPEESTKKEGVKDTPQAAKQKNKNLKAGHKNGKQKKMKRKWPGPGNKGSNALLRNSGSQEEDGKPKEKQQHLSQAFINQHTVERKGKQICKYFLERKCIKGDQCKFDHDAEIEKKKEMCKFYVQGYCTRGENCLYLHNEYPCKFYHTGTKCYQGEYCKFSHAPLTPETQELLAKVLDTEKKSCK
- assayMethodText: log2 fold change, soluble protein after heating vs DMSO (PISA); higher = thermal stabilisation; K562 cells, 10 uM, 30 min; active = over 0.2 and 3.5 SD of the protein, either way, in both replicates (recomputed)
Targets with a hit are over-represented here; the source holds about 7,900 in all. About 0.6% of all pairs of compound and target were hits.
Answers are plain numbers.

CC1=C(C(=O)Nc2cc3cn[nH]c3cc2F)C(c2ccc(C(F)(F)F)cc2)CC(=O)N1 (stereo not drawn) : -0.072

Each of the following entries comes with a recorded value; kindly state log2 fold change for each.
1. CNc1nc(-c2ccc3c(N)n[nH]c3c2)cc(N2C[C@@H](C(=O)NC3CCCCC3)CC[C@H]2C)n1
2. Cc1ccc(NC(=O)c2cccc(C(C)(C)C#N)c2)cc1Nc1ccc2ncn(C)c(=O)c2c1
3. O=C1NC(=O)/C(=C\c2ccc3nccnc3c2)S1
4. Cc1cccc(-c2[nH]c(C(C)(C)C)nc2-c2ccc3nccnc3c2)n1

1. 0.012
2. -0.021
3. 0.044
4. -0.176

// for each compound below, give its log2 fold change
1. c1cc(OCCN2CCCCC2)cc(-c2n[nH]c3ccc(-c4nnc[nH]4)cc23)c1
2. Cn1cc(-c2ccc3c(c2)CCN3C(=O)Cc2cccc(C(F)(F)F)c2)c2c(N)ncnc21
3. Cc1cc(SCc2sc(-c3ccc(C(F)(F)F)cc3)nc2C)ccc1OCC(=O)O

-0.104
-0.084
-0.039

Would you mind giving log2 fold change for every compound in the list below?
1. Cc1ccc(Sc2cncc3sc(C(N)=O)cc23)cc1
2. O=C(CCCCCCNC(=O)c1cnc(N(c2ccccc2)c2ccccc2Cl)nc1)NO
3. CS(=O)(=O)CCNCc1ccc(-c2ccc3ncnc(Nc4ccc(OCc5cccc(F)c5)c(Cl)c4)c3c2)o1

1: -0.115; 2: -0.059; 3: 0

List the reported log2 fold change of each compound below.
1. CCCS(=O)(=O)Nc1ccc(F)c(C(=O)c2c[nH]c3ncc(Cl)cc23)c1F
2. Cc1ccc(NC(=O)c2cccc(N(C)C)c2)cc1NC(=O)c1ccc(O)cc1
3. Cc1nc(Nc2n[nH]c3c2CN(C(=O)N[C@H](CN(C)C)c2ccccc2)C3(C)C)c2sccc2n1
4. CCn1c(C(=O)N(C2CC2)C2CC2)cc2c3c(ncn3C)c(Nc3cc(C)n(C)n3)nc21
5. C[C@H](Nc1ncnc2nc[nH]c12)c1cc2cccc(Cl)c2c(=O)n1-c1ccccc1
6. CC[C@@H]1C(=O)N(C)c2cnc(Nc3ccc(C(=O)NC4CCN(C)CC4)cc3OC)nc2N1C1CCCC1

1. -0.138
2. 0.03
3. 0.081
4. -0.034
5. -0.126
6. 0.181

Which log2 fold change is reported for this compound? CCCS(=O)(=O)Nc1ccc(F)c(C(=O)c2c[nH]c3ncc(-c4ccc(Cl)cc4)cc23)c1F
-0.071
